- target.desc: HLA-B*58:01
- test.protocol: IEDB peptide-MHC binding, purified MHC/direct/fluorescence; filed as Kd, often an IC50 or EC50 that approximates it; bounds were set here for any values at or beyond the usual limits of such assays
- condition.details: source organism: Yellow fever virus
Listing of entries alongside the reported pKd.
Keep in mind that pKd stands for -log10 of concentration in molar terms.

1. KSAHGSPTF = 7.44
2. ITAHLKRLW = 7.34
3. KTWGKNLVF = 7.72
4. ESWIVDRQW = 6.91
5. RQLQKIERW = 7.17

Incoming: Give a short answer stating reported pKd for KIMKVVNRW .
Outgoing: 7.43

Incoming: Give a short answer stating reported pKd for LAVMGDAAW .
Outgoing: 8.52

Incoming: Give a short answer stating reported pKd for ISYIMLIFF .
Outgoing: 5.98

Incoming: Give a short answer stating reported pKd for KTNDRKWCF .
Outgoing: 7.24

###

- target.desc: HLA-B*07:02
- test.protocol: IEDB peptide-MHC binding, purified MHC/direct/fluorescence; filed as Kd, often an IC50 or EC50 that approximates it; bounds were set here for any values at or beyond the usual limits of such assays
- condition.details: source organism: Yellow fever virus
pKd: −log10 of the molar value.
Where pKd equals or exceeds 7, the correct label is TRUE; where it does not, the label is FALSE.

// known answers, use as guide
1) MPRSIGGPV = TRUE
2) AVSRGTAKL = FALSE
3) AATIRVLAL = FALSE
4) RVLDCRTAF = FALSE

Incoming: State whether the measured pKd reaches 7, counting equality as reaching it, for SVAMCRTPF
Outgoing: FALSE

Incoming: State whether the measured pKd reaches 7, counting equality as reaching it, for SPGRKNGSF
Outgoing: TRUE

###

- target.desc: HLA-A*01:01
- test.protocol: IEDB peptide-MHC binding, purified MHC/direct/fluorescence; filed as Kd, often an IC50 or EC50 that approximates it; bounds were set here for any values at or beyond the usual limits of such assays
- condition.details: source organism: dengue virus type 4
recorded.endpoint: Kd (nM)
Unit nM implied. Number only.

Incoming: Give a short answer stating reported Kd for MTTTANWLW .
Outgoing: 2340

###

- target.desc: HLA-A*31:01
- test.protocol: IEDB peptide-MHC binding, purified MHC/direct/fluorescence; filed as Kd, often an IC50 or EC50 that approximates it; bounds were set here for any values at or beyond the usual limits of such assays
- condition.details: source organism: Yellow fever virus
Listing of entries alongside the reported pKd.
Keep in mind that pKd stands for -log10 of concentration in molar terms.

Answered examples (2):
1. RMGERQLQK = 6.73
2. LTLKGTSYK = 6.29

Incoming: Give a short answer stating reported pKd for MVIFFMSPK .
Outgoing: 5.86

###

- target.desc: HLA-B*07:02
- test.protocol: IEDB peptide-MHC binding, purified MHC/direct/fluorescence; filed as Kd, often an IC50 or EC50 that approximates it; bounds were set here for any values at or beyond the usual limits of such assays
- condition.details: source organism: dengue virus type 2
Listing of entries alongside the reported pKd.
Keep in mind that pKd stands for -log10 of concentration in molar terms.

1) SPSKLASAI = 7.92

Incoming: Give a short answer stating reported pKd for RERLSRMAI .
Outgoing: 6.35

###

- target.desc: HLA-A*03:01
- test.protocol: IEDB peptide-MHC binding, purified MHC/direct/fluorescence; filed as Kd, often an IC50 or EC50 that approximates it; bounds were set here for any values at or beyond the usual limits of such assays
- condition.details: source organism: Yellow fever virus
recorded.endpoint: pKd
Keep in mind that pKd stands for -log10 of concentration in molar terms.

1. LTLKGTSYK = 6.98
2. RSHAAIGAY = 6.50
3. TINAVASRK = 6.89
4. GTHPFSRIR = 6.07
5. VMYNLWKMK = 8.40
6. VLWDIPTPK = 7.85
7. KVVNRWLFR = 6.66
8. RMGERQLQK = 6.47

Incoming: Give a short answer stating reported pKd for ALNTITNLK .
Outgoing: 6.61

Incoming: Give a short answer stating reported pKd for MVIFFMSPK .
Outgoing: 6.21

Incoming: Give a short answer stating reported pKd for VLDCRTAFK .
Outgoing: 7.12

###

- target.desc: HLA-B*40:01
- test.protocol: IEDB peptide-MHC binding, purified MHC/direct/fluorescence; filed as Kd, often an IC50 or EC50 that approximates it; bounds were set here for any values at or beyond the usual limits of such assays
- condition.details: source organism: Yellow fever virus
recorded.endpoint: log10(Kd) (log10 of the value in nM)
Record value = log10 of Kd given in nM.

1) KEVSGVKGF = 2.04
2) AEMGANLCV = 0.30
3) YEKKLALYL = 1.78

Incoming: Give a short answer stating reported log10(Kd) for QEKWMTGRM .
Outgoing: 2.86

Incoming: Give a short answer stating reported log10(Kd) for HEVNGTWMI .
Outgoing: 1.00

Incoming: Give a short answer stating reported log10(Kd) for QEGSLKTAL .
Outgoing: 3.46

Incoming: Give a short answer stating reported log10(Kd) for SEQGEFKLL .
Outgoing: 2.15

Incoming: Give a short answer stating reported log10(Kd) for AEVRLATML .
Outgoing: 1.38

Incoming: Give a short answer stating reported log10(Kd) for VEGIGLQYL .
Outgoing: 2.16

Incoming: Give a short answer stating reported log10(Kd) for IEEFGTGVF .
Outgoing: 0.95

###

- target.desc: HLA-B*35:01
- test.protocol: IEDB peptide-MHC binding, purified MHC/direct/fluorescence; filed as Kd, often an IC50 or EC50 that approximates it; bounds were set here for any values at or beyond the usual limits of such assays
- condition.details: source organism: Yellow fever virus
recorded.endpoint: Kd (nM)
Unit nM implied. Number only.

1. MYMALIAAF = 207
2. LVGAAIHPF = 29
3. MNNGGDAMY = 46
4. MAGCGYLMF = 2
5. VLIEVNPPF = 39
6. FCVKVLAPY = 10
7. HSEEGSRAY = 3

Incoming: Give a short answer stating reported Kd for ETACLSKAY .
Outgoing: 288

###

- target.desc: HLA-A*26:01
- test.protocol: IEDB peptide-MHC binding, purified MHC/direct/fluorescence; filed as Kd, often an IC50 or EC50 that approximates it; bounds were set here for any values at or beyond the usual limits of such assays
- condition.details: source organism: dengue virus type 1
recorded.endpoint: Kd (nM)
Unit nM implied. Number only.

Incoming: Give a short answer stating reported Kd for SVKKDLISY .
Outgoing: 31

Incoming: Give a short answer stating reported Kd for EVHTWTEQY .
Outgoing: 2

###

- target.desc: HLA-B*39:01
- test.protocol: IEDB peptide-MHC binding, purified MHC/direct/fluorescence; filed as Kd, often an IC50 or EC50 that approximates it; bounds were set here for any values at or beyond the usual limits of such assays
- condition.details: source organism: Yellow fever virus
recorded.endpoint: Kd (nM)
Unit nM implied. Number only.

Answered examples (6):
1. TKDTNDNNL = 136
2. FHERGYVKL = 35
3. SSARYDVAL = 377
4. IQYVIRAQL = 682
5. CRTAFKPVL = 2060
6. VRGGMVAPL = 5370

Incoming: Give a short answer stating reported Kd for PHAATIRVL .
Outgoing: 960

Incoming: Give a short answer stating reported Kd for RADEINAIL .
Outgoing: 156

###

- target.desc: HLA-A*26:01
- test.protocol: IEDB peptide-MHC binding, purified MHC/direct/fluorescence; filed as Kd, often an IC50 or EC50 that approximates it; bounds were set here for any values at or beyond the usual limits of such assays
- condition.details: source organism: dengue virus type 4
recorded.endpoint: Kd (nM)
Unit nM implied. Number only.

1) NVHTWTEQY = 39

Incoming: Give a short answer stating reported Kd for FTTNIWMKF .
Outgoing: 117

###

Listing of entries alongside the reported Kd.
- target.desc: HLA-B*07:02
- test.protocol: IEDB peptide-MHC binding, purified MHC/direct/fluorescence; filed as Kd, often an IC50 or EC50 that approximates it; bounds were set here for any values at or beyond the usual limits of such assays
- condition.details: source organism: dengue virus type 1
Unit nM implied. Number only.

1. GPSLRTTTV = 3

Incoming: Identify measured Kd obtained with HLA-B*07:02 for CPTQGEATL .
Outgoing: 821

###

- target.desc: HLA-B*58:01
- test.protocol: IEDB peptide-MHC binding, purified MHC/direct/fluorescence; filed as Kd, often an IC50 or EC50 that approximates it; bounds were set here for any values at or beyond the usual limits of such assays
- condition.details: source organism: dengue virus type 3
recorded.endpoint: Kd (µM)
Unit µM implied. Number only.

1. VSGKLIHEW = 0.032

Note: attention shifts to another entry.
Incoming: Give a short answer stating reported Kd for ICSAVPVHW .
Outgoing: 0.076

All values here come from the Immune Epitope Database (IEDB).
